- System: AR mRNA
- protocol.text: Dose-dependent antisense inhibition of human AR in HuVEC cells (electroporation, qRT-PCR RTS3559, IC50)
- Assay type: cell-based
- setup.conditions: 187.5 nM; HuVEC, ~16 h; Table 15
Oligonucleotides are written 5' to 3', each unit as a sugar letter and its base; * is a phosphorothioate linkage, no mark a phosphodiester; rarer units and linkages stand in square brackets, end groups in braces. Plain capitals give the bases only. k = constrained ethyl (cEt); [5mC] = 5-methylcytosine; d = 2'-deoxy (DNA)
attribute.measured: percent inhibition of AR

substance: 586225 (kG*kT*kT*kG*kA*dT*dT*dT*dA*dA*dT*dG*dG*kT*kT*kG; antisense) [compound 586225]
attribute.measured: percent inhibition of AR
measured.value: 61%

substance: 586224 (kT*kT*kG*kA*kT*dT*dT*dA*dA*dT*dG*dG*dT*kT*kG*k[5mC]; antisense) [compound 586224]
attribute.measured: percent inhibition of AR
measured.value: 75%

substance: 549372 (kA*kA*kG*dT*dT*dG*dT*dA*dG*dT*dA*dG*dT*k[5mC]*kG*k[5mC]) [compound 549372]
attribute.measured: percent inhibition of AR
measured.value: 41%

====

- System: TMPRSS2 mRNA
- protocol.text: TMPRSS2 mRNA levels in LMR20 cells
- Format: cell-based, human
- setup.conditions: LMR20 cells, R1881 10 nM 72 hrs, ASO 5.0 μM
Oligonucleotides are written 5' to 3', each unit as a sugar letter and its base; * is a phosphorothioate linkage, no mark a phosphodiester; rarer units and linkages stand in square brackets, end groups in braces. Plain capitals give the bases only. e = 2'-O-(2-methoxyethyl) (MOE); l = locked nucleic acid (LNA); k = constrained ethyl (cEt); [5mC] = 5-methylcytosine; d = 2'-deoxy (DNA)
Catalogue of TMPRSS2 mRNA levels (% baseline value) after treatment with R1881 readings, one per entry.
attribute.measured: TMPRSS2 mRNA levels (% baseline value) after treatment with R1881

substance: 549458 (kG*kT*kT*dG*dA*dT*dT*dT*dA*dA*dT*dG*dG*kT*kT*kG) [compound 549458]
measured.value: 96

substance: 569236 (antisense eT*kG*kA*kT*dT*dT*dA*dA*dT*dG*dG*kT*kT*kG*e[5mC]*eA) [compound 569236]
measured.value: 95

substance: 554221 (ACCAAGTTTCTTCAGC; sugars from the 5' end l3 d10 l3, all phosphorothioate, methylation of C not given here) [compound 554221]
measured.value: 122

substance: 560131 (antisense kT*kT*kG*dA*dT*dT*dT*dA*dA*dT*dG*dG*kT*kT*kG*e[5mC]) [compound 560131]
measured.value: 76

====

- Test system: AR mRNA
- protocol.text: Antisense inhibition of human AR in HuVEC cells, single concentration (electroporation, qRT-PCR RTS3559)
- Type: cell-based
- setup.conditions: 500 nM ASO, ~24 h, Table 17
Oligonucleotides are written 5' to 3', each unit as a sugar letter and its base; * is a phosphorothioate linkage, no mark a phosphodiester; rarer units and linkages stand in square brackets, end groups in braces. Plain capitals give the bases only. k = constrained ethyl (cEt); [5mC] = 5-methylcytosine; d = 2'-deoxy (DNA)
Catalogue of % inhibition readings, one per entry.

substance: 583660 (antisense kG*kA*k[5mC]*dA*d[5mC]*dA*d[5mC]*dG*dG*dT*dG*dG*dA*k[5mC]*kA*kA) [compound 583660]
unit.abbreviation: %
% inhibition: 44
--
substance: 583608 (antisense kG*k[5mC]*kT*dA*dG*d[5mC]*dT*d[5mC]*dG*d[5mC]*d[5mC]*d[5mC]*dG*k[5mC]*kT*k[5mC]) [compound 583608]
unit.abbreviation: %
% inhibition: 51
--
substance: 549458 (kG*kT*kT*dG*dA*dT*dT*dT*dA*dA*dT*dG*dG*kT*kT*kG) [compound 549458]
unit.abbreviation: %
% inhibition: 46
--
substance: 583638 (antisense kT*kG*kA*dT*d[5mC]*dT*d[5mC]*dT*dG*dG*d[5mC]*dT*d[5mC]*k[5mC]*kG*k[5mC]) [compound 583638]
unit.abbreviation: %
% inhibition: 51
--
substance: 583637 (antisense kA*kT*k[5mC]*dT*d[5mC]*dT*dG*dG*d[5mC]*dT*d[5mC]*d[5mC]*dG*k[5mC]*kA*k[5mC]) [compound 583637]
unit.abbreviation: %
% inhibition: 43
--
substance: 549372 (kA*kA*kG*dT*dT*dG*dT*dA*dG*dT*dA*dG*dT*k[5mC]*kG*k[5mC]) [compound 549372]
unit.abbreviation: %
% inhibition: 40
--
substance: 583609 (antisense k[5mC]*kA*kG*d[5mC]*dT*dA*dG*d[5mC]*dT*d[5mC]*dG*d[5mC]*d[5mC]*k[5mC]*kG*k[5mC]) [compound 583609]
unit.abbreviation: %
% inhibition: 51

====

Catalogue of inhibition of AR mRNA at 187.5 nM readings, one per entry.
- System: AR mRNA
- protocol.text: Dose-dependent antisense inhibition of human AR in HuVEC cells (electroporation, qRT-PCR RTS3559, IC50)
- Format: cell-based
- setup.conditions: HuVEC cells, electroporation, 187.5 nM ASO
Oligonucleotides are written 5' to 3', each unit as a sugar letter and its base; * is a phosphorothioate linkage, no mark a phosphodiester; rarer units and linkages stand in square brackets, end groups in braces. Plain capitals give the bases only. k = constrained ethyl (cEt); [5mC] = 5-methylcytosine; d = 2'-deoxy (DNA)

substance: 586124 (kG*kA*kT*dT*dT*dA*dA*dT*dG*dG*dT*dT*dG*k[5mC]*kA*kA; further chemistry not given here) [compound 586124]
inhibition of AR mRNA at 187.5 nM [%]: 47

substance: 586227 (kT*kG*kA*kT*kT*dT*dA*dA*dT*dG*dG*dT*dT*kG*k[5mC]*kA; antisense) [compound 586227]
inhibition of AR mRNA at 187.5 nM [%]: 60

substance: 586225 (kG*kT*kT*kG*kA*dT*dT*dT*dA*dA*dT*dG*dG*kT*kT*kG; antisense) [compound 586225]
inhibition of AR mRNA at 187.5 nM [%]: 61

substance: 549458 (kG*kT*kT*dG*dA*dT*dT*dT*dA*dA*dT*dG*dG*kT*kT*kG) [compound 549458]
inhibition of AR mRNA at 187.5 nM [%]: 50

substance: 549372 (kA*kA*kG*dT*dT*dG*dT*dA*dG*dT*dA*dG*dT*k[5mC]*kG*k[5mC]) [compound 549372]
inhibition of AR mRNA at 187.5 nM [%]: 41

substance: 586224 (kT*kT*kG*kA*kT*dT*dT*dA*dA*dT*dG*dG*dT*kT*kG*k[5mC]; antisense) [compound 586224]
inhibition of AR mRNA at 187.5 nM [%]: 75

====

Catalogue of AST readings, one per entry.
- setup.conditions: cynomolgus monkey, in vivo, sc, 40 mg/kg
attribute.measured: AST (IU/L)

ordered.residues: TGATTTAATGGTTGCA [ISIS 569213] (cEt/MOE gapmer chemistry, further chemistry not given here)
unit.abbreviation: IU/L
measured.value: 80

ordered.residues: TTGATTTAATGGTTGC [ISIS 579671] (cEt/MOE gapmer chemistry, further chemistry not given here)
unit.abbreviation: IU/L
measured.value: 53

ordered.residues: TTGATTTAATGGTTGC [ISIS 560131] (MOE and (S)-cEt gapmer chemistry, further chemistry not given here)
unit.abbreviation: IU/L
measured.value: 87

====

- Tested on: AR mRNA
- protocol.text: Dose-dependent antisense inhibition of human AR in HuVEC cells (electroporation, qRT-PCR RTS3559, IC50)
- Type: cell-based
- setup.conditions: Table 29; 750.0 nM, HuVEC, electroporation, approximately 16 hours
Oligonucleotides are written 5' to 3', each unit as a sugar letter and its base; * is a phosphorothioate linkage, no mark a phosphodiester; rarer units and linkages stand in square brackets, end groups in braces. Plain capitals give the bases only. k = constrained ethyl (cEt); [5mC] = 5-methylcytosine; d = 2'-deoxy (DNA)
# percent inhibition of AR, 750.0 nM >= 70% gives yes, anything below gives no

substance: 583662 (antisense kA*kG*kA*dA*dG*dA*d[5mC]*dA*d[5mC]*dA*d[5mC]*dG*dG*kT*kG*kG) [compound 583662]
answer.label: yes
--
substance: 583608 (antisense kG*k[5mC]*kT*dA*dG*d[5mC]*dT*d[5mC]*dG*d[5mC]*d[5mC]*d[5mC]*dG*k[5mC]*kT*k[5mC]) [compound 583608]
answer.label: no
--
substance: 583583 (antisense kG*kA*k[5mC]*dT*dG*dA*dG*dG*d[5mC]*dA*dG*d[5mC]*dT*kG*k[5mC]*kG) [compound 583583]
answer.label: no
--
substance: 583566 (antisense k[5mC]*k[5mC]*kT*dT*dG*d[5mC]*dT*dT*d[5mC]*d[5mC]*dT*d[5mC]*d[5mC]*kG*kA*kG) [compound 583566]
answer.label: no
